assay_method_text: Components of the Cytosolic LPS Sensing Pathway: Gene Identification via Genome-wide siRNA Screen
stated_conditions: RAW264.7 macrophages, IL-1a HTRF, actives lie on both sides, screened at 100 nM (by protocol), cells primed 5 h with Pam3CSK4 first
Procedure: Non-canonical inflammasome activation by cytosolic LPS is a critical component of the host response to Gram-negative bacterial infection, however we lack a comprehensive understanding of the cellular processes that control this pathway. […] Lipofectamine RNAiMAX Transfection Reagent ([…]; Invitrogen) was added in […] serum-free, antibiotic-free media to plate wells using a Thermo Scientific Matrix WellMate and Microplate Stacker. […] The plates were read on an EnVision plate reader (PerkinElmer). […]
Hit rate of the full screen: of about 53,000 sequences, about 3,700 (7%) were called active.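 Rule for the calls: active = gene knockdowns whose robust z-score for IL-1 alpha signal is at least 2 or at most -2, so actives lie on both sides; inactive = the rest.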 Shown is part of a subset that was picked to be rich in actives.
Reply using exactly one outcome from yes = active, no = inactive

Known results for sequences:
Given CCAUACAUAUAGACAAUCCTT against AY358078 , state the outcome it received in this test.
no

Given CCCUCCGUGUUUUUAAGAUTT against Tbl2 , state the outcome it received in this test.
no

Given GCCGGAAUCCUGUGGAAUCTT against Kat14 , state the outcome it received in this test.
yes

New cases:
Given GCACUUCUUUGUGCAAAGCTT against Shfl , state the outcome it received in this test.
no

Given GGUGGAGAUUGUUUGUAAATT against Lratd1 , state the outcome it received in this test.
no

Given GGAGCAGGUUACCAGAAAATT against E130114P18Rik , state the outcome it received in this test.
no

Given GGUAAACCAAACAAAACCATT against Rpl35a , state the outcome it received in this test.
no

Given GGCCUUCCUUGACCAAUCUTT against Ren1 , state the outcome it received in this test.
yes

Given GGGAACCAGUACAAUUACATT against Glt8d1 , state the outcome it received in this test.
no

Given GGCUGCAUGGUACAGAUCUTT against Olfr463 , state the outcome it received in this test.
yes

Given GGUAUCGUAUAUGGAGAUCTT against Kif13a , state the outcome it received in this test.
yes

Given GGUCUACAACCAAAUCUGCTT against Clec7a , state the outcome it received in this test.
no

Given GGAAUUGUCAGGUCUUGAATT against Tmem174 , state the outcome it received in this test.
no

Given GGCUUCCUCAAGAACUUUCTT against Acly , state the outcome it received in this test.
no

src = PubChem BioAssay AID1508600
